- Test Name: chemical genetic growth profiling, strain panel (AID 1159580);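 note: tested at 20 µM; growth read once vehicle control cultures reached saturation at 30 °C; 1 = growth at the plate median or of vehicle wells; lower values mean less growth of the strain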
- Experimental Setup: S. cerevisiae deletion strains, growth OD, locus YML032C, strain rad52
Hit rate of the full screen: of about 5,500 compounds, about 2,000 (36%) were called active. Not shown: some 18% with an inconclusive outcome. Cut-off read from the data, not from the text of the source: active = normalized growth mostly below about 0.91 (no sharp cut-off); inconclusive = no clear call, values can overlap the other calls; inactive = mostly above about 0.92. Some of the results follow.
Classes used: class 1 (active), class 0 (inactive)

> print(dat)
                                   compound  discrete.label
1  CCCC1O[C@@H]2CC3C4CCC5=CC(=O)C=CC5(C)C4[C@@H](O)CC3(C)[C@]2(C(=O)CO)O1 (stereo partly drawn)         class 0
2     O=[N+]([O-])c1ccc(O)c([N+](=O)[O-])c1         class 1
3                                  O=C(O)CF         class 0

###

Let's look at some compounds and their measured normalized growth.
- Test Name: chemical genetic growth profiling, strain panel (AID 1159580)
- Experimental Setup: S. cerevisiae deletion strains, growth OD, locus YLR039C, strain RIC1, hits give low values
About 2,000 (36%) of roughly 5,500 compounds were called active. Not shown: some 18% with an inconclusive outcome. The list shows a part of the results.
Experimental Readout: normalized growth

> print(dat)
                         compound.smiles  experimental.readout  recorded.measurement
1         N[C@@H](Cc1ccc(O)c(O)c1)C(=O)O     normalized growth                  0.91
2  CCSc1sc(C(=O)OC)c(-c2ccc(Cl)cc2)c1C#N     normalized growth                  1.01
3                    O=C(O)CCC(=O)C(=O)O     normalized growth                  1.05

###

- Test Name: chemical genetic growth profiling, strain panel (AID 1159580);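 note: tested at 20 µM; growth read once vehicle control cultures reached saturation at 30 °C; 1 = growth at the plate median or of vehicle wells; lower values mean less growth of the strain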
- Experimental Setup: S. cerevisiae deletion strains, growth OD, locus YKL085W, strain MDH1 (second series), hits give low values
Hit rate of the full screen: of about 5,500 compounds, about 2,000 (36%) were called active. Roughly 18% stayed inconclusive and do not appear here. Some of the results follow.
Known normalized growth of a selection of molecules

Molecule	normalized growth
Nc1ccc(C(=O)NCC(=O)O)cc1	1.01 (inactive)
COc1cc(OC)c2c(=O)c(-c3ccccc3)c(C)oc2c1OC	0.996 (inactive)
CC(=O)O[C@@H]1C[C@@]2(C)[C@H](c3ccoc3)C[C@H]3O[C@]32[C@]2(C)C(=O)C(O)=C3C(C)(C)C(=O)C=C[C@]3(C)C12 (stereo not given in full)	0.993 (inactive)
COC(=O)C[C@H]1C(C)(C)C(=O)[C@@H]2CC3=C4CC(=O)O[C@@H](c5ccoc5)[C@]4(C)CCC3[C@@]1(C)C2=O (stereo not given in full)	0.995 (inactive)
C=CCC1(C(C)CCC)C(=O)N=C(S)NC1=O (stereo not given)	0.983 (inactive)
C1CCN2C[C@@H]3C[C@H](CN4CCCC[C@@H]34)[C@H]2C1	1.02 (inactive)
CC(C)NCC(O)c1ccc(O)c(O)c1 (stereo not given)	0.994 (inactive)
NCC(O)c1ccc(O)cc1 (stereo not given)	0.989 (inactive)
CC1(C)C(O)CC(O)C2(C)C1CC(O)C1(C)C2CCC2(C)C(c3ccoc3)CC3OC321 (stereo not given)	0.996 (inactive)
CO[C@H]1/C=C/O[C@@]2(C)Oc3c(C)c(O)c4c(O)c(c(/C=N/N5CCN(C)CC5)c(O)c4c3C2=O)NC(=O)/C(C)=C\C=C\C(C)[C@H](O)[C@@H](C)[C@@H](O)[C@@H](C)[C@@H](OC(C)=O)[C@@H]1C (stereo not given in full)	1.01 (inactive)

###

- Test Name: chemical genetic growth profiling, strain panel (AID 1159580);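 note: tested at 20 µM; growth read once vehicle control cultures reached saturation at 30 °C; 1 = growth at the plate median or of vehicle wells; lower values mean less growth of the strain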
- Experimental Setup: S. cerevisiae deletion strains, growth OD, locus YCL011C, strain gbp2, hits give low values
Hit rate of the full screen: of about 5,500 compounds, about 2,000 (36%) were called active. Roughly 18% stayed inconclusive and do not appear here. The list shows a part of the results.
Experimental Readout: normalized growth

> print(dat)
                                    molecule  experimental.readout  recorded.measurement
 1  CC1(C)C(=O)C=C[C@@]2(C)C1=C(O)C(=O)[C@]1(C)C2CC[C@@]2(C)[C@H](c3ccoc3)C[C@H]3O[C@]321 (stereo partly specified)     normalized growth                 0.827
 2  CC(C)=CCC[C@](C)(O)C1CC=C(C)CC1 (stereo partly specified)     normalized growth                 0.979
 3    NCC(O)c1ccc(O)cc1 (stereo unspecified)     normalized growth                  1.03
 4  Cc1c(O)c(O)cc2c1CC=C1[C@@]2(C)CC[C@@]2(C)C3C[C@](C)(C(=O)O)CC[C@]3(C)CC[C@]12C (stereo partly specified)     normalized growth                 0.377
 5        Cc1ccc(/C(=C\CN2CCCC2)c2ccccn2)cc1     normalized growth                  0.99
 6  CC(C)(C)NCC(O)c1ccccc1Cl (stereo unspecified)     normalized growth                 0.995
 7            CC(=O)Nc1cc([As](=O)(O)O)ccc1O     normalized growth                  1.02
 8  COc1ccc(C(Cl)=C(c2ccc(OC)cc2)c2ccc(OC)cc2)cc1     normalized growth                  1.02
 9                     C/C=C/c1ccc2c(c1)OCO2     normalized growth                  1.01
10                CNC[C@@H](O)c1ccc(O)c(O)c1     normalized growth                  1.02
11  C=C(C)C1CC=C(CO)CC1 (stereo unspecified)     normalized growth                 0.963
12  CC/C(=C(\c1ccccc1)c1ccc(OCCN(C)C)cc1)c1ccccc1     normalized growth                0.0716
13                   C[n+]1cccc(C(=O)[O-])c1     normalized growth                  0.97
14                           O=C(O)C1=CCNCC1     normalized growth                  1.01
15  CCCC1O[C@@H]2CC3C4CCC5=CC(=O)C=CC5(C)C4[C@@H](O)CC3(C)[C@]2(C(=O)CO)O1 (stereo partly specified)     normalized growth                 0.996
16                                  C1CNCCN1     normalized growth                  1.01

###

- Test Name: chemical genetic growth profiling, strain panel (AID 1159580);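 note: tested at 20 µM; growth read once vehicle control cultures reached saturation at 30 °C; 1 = growth at the plate median or of vehicle wells; lower values mean less growth of the strain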
- Experimental Setup: S. cerevisiae deletion strains, growth OD, locus YLR342W, strain FKS1
Hit rate of the full screen: of about 5,500 compounds, about 2,000 (36%) were called active. Inconclusive results (about 18%) are left out. Rule as the data show it: active = normalized growth mostly below about 0.91 (no sharp cut-off); inconclusive = no clear call, values can overlap the other calls; inactive = mostly above about 0.92. The list shows a part of the results.
Classes used: active, inactive

> print(dat)
                                    molecule  discrete.label
 1  O=c1[nH]c(=O)n(C2C[C@@H](O)[C@@H](CO)O2)cc1F (stereo not given in full)        inactive
 2      CCOP(=S)(OCC)SCn1c(=O)oc2cc(Cl)ccc21        inactive
 3  CC1(C)C(=O)C=C[C@@]2(C)C1=C(O)C(=O)[C@]1(C)C2CC[C@@]2(C)[C@H](c3ccoc3)C[C@H]3O[C@]321 (stereo not given in full)          active
 4      NCC(O)c1ccc(O)cc1 (stereo not given)        inactive
 5  C=C[C@@H](C1=CC(=O)C(OC)=C(OC)C1=O)c1ccccc1          active
 6                                  O=C(O)CF        inactive
 7  CCCCC1=NC2(CCCC2)C(=O)N1Cc1ccc(-c2ccccc2-c2nn[nH]n2)cc1        inactive
 8  CC/C(=C(\c1ccccc1)c1ccc(OCCN(C)C)cc1)c1ccccc1          active
 9                   Nc1ccc([As](=O)(O)O)cc1        inactive
10                  NC[C@H](O)c1ccc(O)c(O)c1        inactive
11  C=CC(C1=CC(=O)C=CC1=O)c1ccccc1 (stereo not given)        inactive
12      C=C(CC)C(=O)c1ccc(OCC(=O)O)c(Cl)c1Cl        inactive
13  NC(=NCCC[C@H](N)C(=O)O)NC(CCC(=O)O)C(=O)O (stereo not given in full)        inactive
14  C1CCN2C[C@@H]3C[C@H](CN4CCCC[C@@H]34)[C@H]2C1        inactive
15  CC(C)NCC(O)c1ccc(O)c(O)c1 (stereo not given)        inactive
16  Nc1ncnc2c1ncn2[C@@H]1O[C@H](CO)[C@@H](O)[C@H]1O        inactive
17        Cc1c(Nc2ncccc2C(=O)O)cccc1C(F)(F)F        inactive
18  C1CCN2CC3CC(CN4CCCCC34)C2C1 (stereo not given)        inactive
19  C=CC(C1=CC(=O)C(OC)=CC1=O)c1ccc(O)cc1 (stereo not given)        inactive
20  COC(C)(C)CCC[C@H](C)C/C=C/C(C)=C/C(=O)OC(C)C        inactive
21  CN(C)CCOC(C)(c1ccccc1)c1ccccn1 (stereo not given)        inactive
22  C=CC(C1=CC(=O)C(OC)=CC1=O)c1ccc(OC)cc1 (stereo not given)        inactive
23  O=C(O[C@@H]1Cc2c(O)cc(O)cc2O[C@@H]1c1cc(O)c(O)c(O)c1-c1c([C@H]2Oc3cc(O)cc(O)c3C[C@H]2O)cc(O)c(O)c1O)c1cc(O)c(O)c(O)c1        inactive
24  CCCCC(CC)CN1CN(CC(CC)CCCC)CC(C)(N)C1 (stereo not given)          active
25  COc1ccccc1OCCNCC(O)COc1cccc2[nH]c3ccccc3c12 (stereo not given)        inactive
